# tested-system: T1, human IL-25 (human, UniProt Q9H293 33-177)
# T1 construct: ELISA used bought R&D systems #1258-IL-025/CF; Treated as one molecule; also called IL-17E; human IL-17E
# T1 sequence (looked up): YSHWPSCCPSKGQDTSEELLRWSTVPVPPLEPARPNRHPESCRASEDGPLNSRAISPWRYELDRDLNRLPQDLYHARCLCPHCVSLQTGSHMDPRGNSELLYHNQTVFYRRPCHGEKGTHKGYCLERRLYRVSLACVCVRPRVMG
# method: SPR, Biacore T200; antibody captured by anti-human Fc, IL-25 as analyte
parameter: Kd (nM)
Report the figure in nM without appending any unit label.

binder: VH1-1 + VL2-1 (humanized anti-IL-25 antibody formed by VH1-1 and VL2-1) (antibody, V domains shown) VH: QVTLKESGPTLVKPTQTLTLTCTFSGFSLSTSGMGLGWIRQPPGKALEWLAHIWWDDVKHYKPALKSRLTITKDTSKNQVVLTMTNVDPVDTATYYCARMGQLHYYGYDYAMDYWGQGTLVTVSS VL: DIQLTQSPSFLSASVGDRVTITCSASSSVSYMYWYQQKPGKAPKPLIYRTSNLASGVPSRFSGSGSGTEYTLTISSMQPEDFATYYCQLYHSYPPTWTFGQGTKLEIK
endpoint-result: 0.271

Let's switch to this binder now.
Problem: Could you tell me which Kd is on file for VH2-1 + VL2-1 (humanized anti-IL-25 antibody formed by VH2-1 and VL2-1) (antibody, V domains shown) VH: QVTLRESGPALLKPTQTLTLTCTFSGFSLSTSGMGLGWIRQPPGKALEWLAHIWWDDVKHYKPALKSRLTISKDTSKNQVVLTITNVDPVDTATYYCARMGQLHYYGYDYAMDYWGQGTLVTVSS VL: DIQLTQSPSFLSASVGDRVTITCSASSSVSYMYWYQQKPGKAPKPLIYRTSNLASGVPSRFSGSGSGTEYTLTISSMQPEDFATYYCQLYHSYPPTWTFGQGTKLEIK ?
Solution: 0.302
